Each recorded value in this set is attributed to ChEMBL document CHEMBL1201862.

GI50 values, listed per item
- Tested on: SNB-75
- Assay overview: NCI tumour cell line growth inhibition, 48 h
Activity calls are given as the source filed them. Cut-off read from the data, not from the text of the source: active = GI50 up to about 1.1 µM and inactive = higher.

>  <Molecule>
COc1ccc(S(=O)(=O)NC(CCC(=O)NN)C(=O)NN)cc1 (stereo not given)

>  <GI50>
> 100 µM (inactive)

$$$$
>  <Molecule>
CCOc1ccc2c(c1)[n+]([O-])c(-c1ccc(Br)cc1)c(N)[n+]2[O-]

>  <GI50>
> 100 µM (inactive)

$$$$
>  <Molecule>
c1ccc(N2N=C3N(c4ccccc4)C2N3c2ccccc2)cc1

>  <GI50>
17.8 µM (inactive)

$$$$
>  <Molecule>
Cc1c(F)c(N)c2c(=O)cc(-c3ccc(NC(=O)[C@@H](N)CCCCN)c(F)c3)oc2c1F

>  <GI50>
4.68 µM (inactive)

$$$$
>  <Molecule>
COc1ccc(C(O)CC(O)(C(F)(F)F)C(F)(F)F)cc1 (stereo not given)

>  <GI50>
1.7 µM (inactive)

$$$$

---

GI50 values, listed per item
- System: Malme-3M
- Assay overview: NCI tumour cell line growth inhibition, 48 h
Active and inactive are the calls of the source. Rule as the data show it: active = GI50 up to about 1.1 µM and inactive = higher.
Property name: GI50

>  <Compound>
O=c1[nH]nc(Nc2ccccc2)c2nnn(C3CCCCC3)c12

>  <Result>
> 100 µM (inactive)

$$$$
>  <Compound>
CC(C)N(C(=O)C12C3C4C1C1C4(C#N)C3C12C#N)C(C)C (stereo not drawn)

>  <Result>
> 100 µM (inactive)

$$$$
>  <Compound>
CC1(CCC(=O)OC2CCCCC2)OCCO1

>  <Result>
> 100 µM (inactive)

$$$$
>  <Compound>
COc1ccc(C(=O)N(C(=S)OCCOc2ccccc2)c2ccccc2)cc1

>  <Result>
28.4 µM (inactive)

$$$$
>  <Compound>
Cc1cc2c(cc1C)[n+]([O-])c(C(=O)CC(=O)C(=O)Nc1ccccc1C)c(C)[n+]2[O-]

>  <Result>
> 100 µM (inactive)

$$$$
>  <Compound>
Cc1cc2oc(=N)c(C#N)c(C)c2cc1C

>  <Result>
43 µM (inactive)

$$$$
>  <Compound>
OCCNc1nc2c(N3CCCC3)nc(N3CCNCC3)nc2nc1NCc1ccccc1

>  <Result>
19.6 µM (inactive)

$$$$
>  <Compound>
Clc1ccc(Nc2nc3ccccc3nc2-c2cccs2)cc1Cl

>  <Result>
> 100 µM (inactive)

$$$$
>  <Compound>
COc1ccc(S(=O)(=O)NC(CCC(=O)NN)C(=O)NN)cc1 (stereo not drawn)

>  <Result>
> 100 µM (inactive)

$$$$
>  <Compound>
CCc1ccccc1NNc1cc(=O)[nH]c(=O)[nH]1

>  <Result>
> 10 µM (inactive)

$$$$
>  <Compound>
CCOC(=O)NC(NCC(O)c1ccccc1)(C(F)(F)F)C(F)(F)F (stereo not drawn)

>  <Result>
> 100 µM (inactive)

$$$$
>  <Compound>
O=C1C[C@@H]2[C@@H](CCC23CCCC3)N1

>  <Result>
> 100 µM (inactive)

$$$$
>  <Compound>
S=C1NNC(=S)NN1

>  <Result>
0.594 µM (active)

$$$$
>  <Compound>
CN(CC(=O)O)Cc1c(O)c(Cl)cc(Cl)c1Cl

>  <Result>
27.4 µM (inactive)

$$$$
>  <Compound>
Clc1ccc(OCc2nnc(CCCCCCCCc3nnc(COc4ccc(Cl)cc4)o3)o2)cc1

>  <Result>
3.58 µM (inactive)

$$$$
>  <Compound>
Oc1ccc(Br)cc1/C=N/c1c(NC2CCCCC2)oc2ccc(Br)cc12

>  <Result>
31.7 µM (inactive)

$$$$
>  <Compound>
COc1cc(C2C3=C(COC3=O)Oc3cc4c(cc32)OCO4)cc(OC)c1OC (stereo not drawn)

>  <Result>
0.0828 µM (active)

$$$$
>  <Compound>
O=C(CCC(NC(=O)OCc1ccccc1)C(=O)OCc1ccccc1)Nc1ccc(OCc2ccccc2)cc1 (stereo not drawn)

>  <Result>
> 31.6 µM (inactive)

$$$$
>  <Compound>
C=C(C)CNCCN

>  <Result>
> 100 µM (inactive)

$$$$
>  <Compound>
CON(C)C(=O)CCCO

>  <Result>
> 100 µM (inactive)

$$$$
>  <Compound>
C[C@]12CCC3[C@@H](CC[C@@H]4c5nonc5CC[C@]34C)C1C/C(=N/O)C2=O (stereo partly drawn)

>  <Result>
> 100 µM (inactive)

$$$$
>  <Compound>
COc1c(C(CC(C)C)OC(C)=O)ccc2c1C(=O)OCc1cc(C)cc(O)c1O2 (stereo not drawn)

>  <Result>
16.1 µM (inactive)

$$$$
>  <Compound>
O=C1C(Cl)=C(Nc2ccc(S(=O)(=O)Nc3ccccn3)cc2)C(=O)c2ccccc21

>  <Result>
2.96 µM (inactive)

$$$$

---

- Test system: HOP-92
- Assay overview: NCI tumour cell line growth inhibition, 48 h
The source made the active and inactive calls. No stated cut-off is given here; in the data, active = GI50 up to about 1.1 µM and inactive = higher.

>  <Molecule>
CC(/C=C/c1ncccc1OCCCCCC(=O)O)=N\NC1=NCCN1

>  <GI50>
> 100 µM (inactive)

$$$$
>  <Molecule>
S=c1[nH]c(=S)c2cc(Sc3ccc4[nH]c(=S)[nH]c(=S)c4c3)ccc2[nH]1

>  <GI50>
32.3 µM (inactive)

$$$$
>  <Molecule>
C=C(C(=O)OC)N1C(=O)CC(C)C1=O (centres undefined)

>  <GI50>
1.95 µM (inactive)

$$$$
>  <Molecule>
Nc1nc2c(ncn2CC2CCC(CO)C2)c(=O)[nH]1 (centres undefined)

>  <GI50>
> 100 µM (inactive)

$$$$
>  <Molecule>
O=C(OCc1ccccc1)N1c2cc([N+](=O)[O-])ccc2C(=O)N2CCC[C@H]2C1O (some centres undefined)

>  <GI50>
> 100 µM (inactive)

$$$$
>  <Molecule>
O=C1CC(n2cccc2)c2c(Br)sc(Br)c21 (centres undefined)

>  <GI50>
16.1 µM (inactive)

$$$$
>  <Molecule>
COC[C@@H]1Cc2cc(OC)c3c(c2[C@H](c2ccc(OC)c(OC)c2)[C@H]1COC)OCO3

>  <GI50>
70 µM (inactive)

$$$$
>  <Molecule>
CCC(=O)O[C@@H]1C2C(OC(C)=O)C34COC(C)([C@@H]3C3C(C[C@]3(C)OC(C)=O)[C@@H](OC(=O)c3ccccc3)C4=O)[C@H](OC(C)=O)[C@@]2(OC(C)=O)C[C@@H]1C (some centres undefined)

>  <GI50>
14.7 µM (inactive)

$$$$
>  <Molecule>
O=C1c2ccccc2C(=O)c2c(O)ccc(O)c21

>  <GI50>
> 100 µM (inactive)

$$$$

---

- Test system: HOP-62
- Assay overview: NCI tumour cell line growth inhibition, 48 h
The source made the active and inactive calls. No stated cut-off is given here; in the data, active = GI50 up to about 1.1 µM and inactive = higher.
Property name: GI50

>  <Compound>
C=CC1=CSNN1

>  <Result>
> 100 µM (inactive)

$$$$
>  <Compound>
COC(=O)C1(Cc2ccc3c(c2)CCC3)Cc2ccccc2C1O (configuration not stated)

>  <Result>
22.9 µM (inactive)

$$$$
>  <Compound>
CCOc1ccc(Nc2nc(C)c(C(=O)/C=C/c3ccc(Cl)cc3Cl)s2)cc1

>  <Result>
31.3 µM (inactive)

$$$$
>  <Compound>
CSC(SC)=C(C#N)C(=O)Nc1ccc(C)cc1

>  <Result>
> 100 µM (inactive)

$$$$
>  <Compound>
CC1=C(C)CC(C#N)(C#N)C(C#N)(C#N)C1

>  <Result>
> 10 µM (inactive)

$$$$
>  <Compound>
CCOC(=O)/C(=C\c1ccc(N(C)C)cc1)S(=O)(=O)C(F)(F)C(F)(F)C(F)(F)C(F)(F)F

>  <Result>
> 100 µM (inactive)

$$$$
>  <Compound>
COC(OC)c1cccnc1C

>  <Result>
> 100 µM (inactive)

$$$$
>  <Compound>
O=C(C(=O)n1ccc2ccccc21)n1ccc2ccccc21

>  <Result>
99.3 µM (inactive)

$$$$
>  <Compound>
O1C2C1C1OC1C1OC1C1OC21 (configuration not stated)

>  <Result>
> 100 µM (inactive)

$$$$
>  <Compound>
CC1OC(OCC2OC(Oc3c(-c4ccc(O)cc4)oc4cc(O)cc(O)c4c3=O)C(OC3OC(C)C(O)C(O)C3O)C(O)C2O)C(O)C(O)C1O (configuration not stated)

>  <Result>
> 100 µM (inactive)

$$$$
>  <Compound>
CCOC(=O)CC/C(C)=N\n1c(Cc2ccc(Cl)cc2)n[nH]c1=O

>  <Result>
> 100 µM (inactive)

$$$$
>  <Compound>
O=C(NCc1ccccc1)c1cc2ccccc2o/c1=N\c1cccc(C(F)(F)F)c1

>  <Result>
85.3 µM (inactive)

$$$$
>  <Compound>
O=C(OCCN=c1c2ccccc2ccc2ccccc12)c1ccccc1

>  <Result>
64.6 µM (inactive)

$$$$
>  <Compound>
CC(C)(C)OC(=O)N(CCCN)CCCCN(CCCN)C(=O)OC(C)(C)C

>  <Result>
> 100 µM (inactive)

$$$$
>  <Compound>
CCCCCCCCCCCCCCCCOP(=O)(O)OCC(NC(C)=O)C(=O)O (configuration not stated)

>  <Result>
19.2 µM (inactive)

$$$$
>  <Compound>
COc1cc(NS(C)(=O)=O)ccc1N1Cc2c[nH]c3ccc4nccc1c4c23

>  <Result>
54.2 µM (inactive)

$$$$
>  <Compound>
CN1CN(c2ccccc2)C2(CCN(CCC3COc4ccccc4O3)CC2)C1=O (configuration not stated)

>  <Result>
> 10 µM (inactive)

$$$$
>  <Compound>
CSc1ccc2c(cc1=O)[C@@H](NC(=O)c1ccc(Cl)cc1)CCc1cc(O)c(O)c(O)c1-2

>  <Result>
57.4 µM (inactive)

$$$$
>  <Compound>
CCOP(=O)(C[S+](C)[O-])O[C@@H]1C[C@H](C)CC[C@H]1C(C)C (some centres not stated)

>  <Result>
5.53 µM (inactive)

$$$$
>  <Compound>
CC(=O)/C(=C\n1c(=S)[nH]c2ccc([N+](=O)[O-])cc21)C(=O)Nc1ccccc1C

>  <Result>
> 100 µM (inactive)

$$$$
>  <Compound>
Cc1ccc(-c2nc(C)c(C(=O)Nc3ccc(Cl)cc3)s2)cc1

>  <Result>
13.4 µM (inactive)

$$$$
>  <Compound>
CC1(c2ccccc2)CC(c2cccc([N+](=O)[O-])c2)=NO1 (configuration not stated)

>  <Result>
> 100 µM (inactive)

$$$$
